Experiment: qHTS for differential inhibitors of proliferation of Plasmodium falciparum line HB3 (AID 1886);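 also: parasites grown with compound for 72 h before SYBR Green readout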
Conditions: Plasmodium falciparum HB3 proliferation inhibition; series mostly up to 28.7 µM
Records with an inconclusive call do not appear. Calls of active or inactive are those of the source. Calls follow the shape of the dose curve; as a rule, active = well fitted curve in the direction sought with a large enough effect; inconclusive = small, poorly fitted or top-dose-only effect, or another doubt; inactive = no such curve, though single readings can be large or run the other way. Residues, ends and D or L forms follow the SMILES beside them. *: point of attachment. Cbz = O=C(OCc1ccccc1)*
Pick one: active, inactive

Study these solved cases before continuing.
{"molecule": "CCCCCC(O)CCCC(=O)O (stereo not drawn)", "discrete.label": "inactive"}
{"molecule": "CCCn1c(=O)c2[nH]c(C3CCCC3)nc2n(CCC)c1=O", "discrete.label": "inactive"}
{"molecule": "CC(C)[C@H](NC(=O)OCc1ccccc1)C(=O)N[C@H](C=O)Cc1ccccc1 (Cbz-Val-Phe-aldehyde)", "discrete.label": "active"}

In: How was O=C(O)CCC(=O)N1CCCC1C(=O)O (stereo not drawn) classified in this test?
Out: inactive

In: How was `O=[N+]([O-])c1cccc2cn[nH]c12` classified in this test?
Out: inactive

In: How was `Cc1ccccc1/C=C/C1=NCCN1` classified in this test?
Out: active

In: How was `c1ccc2nc(C3=NCCN3)ccc2c1` classified in this test?
Out: inactive

In: How was `O=c1[nH]c2ccccc2c2ccccc12` classified in this test?
Out: inactive
